Molecular target: T1, murine GPC3-his protein (murine, UniProt Q8CFZ4 25-558, limits assumed)
T1 construct: Bought protein; also called mouse GPC3 protein; murine GPC3 protein; not shown: His tag
T1 sequence (Q8CFZ4 25-558 limits assumed): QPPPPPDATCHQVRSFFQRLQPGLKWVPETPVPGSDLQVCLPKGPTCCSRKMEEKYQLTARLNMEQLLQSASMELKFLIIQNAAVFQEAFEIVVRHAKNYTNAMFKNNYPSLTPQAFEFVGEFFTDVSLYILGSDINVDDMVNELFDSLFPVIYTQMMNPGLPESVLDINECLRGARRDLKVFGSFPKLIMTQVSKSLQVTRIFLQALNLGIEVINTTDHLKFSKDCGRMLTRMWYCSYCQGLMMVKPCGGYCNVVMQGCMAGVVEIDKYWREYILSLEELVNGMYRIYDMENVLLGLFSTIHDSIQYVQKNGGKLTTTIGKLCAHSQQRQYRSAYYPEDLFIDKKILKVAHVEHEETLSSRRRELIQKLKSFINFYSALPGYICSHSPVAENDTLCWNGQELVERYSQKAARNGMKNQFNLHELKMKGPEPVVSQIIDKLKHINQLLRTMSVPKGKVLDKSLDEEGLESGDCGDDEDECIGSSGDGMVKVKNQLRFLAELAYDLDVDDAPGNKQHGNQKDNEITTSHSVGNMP
Assay: ELISA, murine GPC3-his coated; antibody 2.67 nM
Reported property: OD450 nm
Answers are plain numbers.

Solved cases (2 shown):
[[record]]
binder = "hAb001H1aL1 (antibody, human IgG1, V domains shown, Humanized F2.169.2, H1a+L1) VH: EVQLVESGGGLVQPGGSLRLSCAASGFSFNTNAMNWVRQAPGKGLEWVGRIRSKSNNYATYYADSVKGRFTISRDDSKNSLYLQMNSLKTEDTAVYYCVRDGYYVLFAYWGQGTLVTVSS VL: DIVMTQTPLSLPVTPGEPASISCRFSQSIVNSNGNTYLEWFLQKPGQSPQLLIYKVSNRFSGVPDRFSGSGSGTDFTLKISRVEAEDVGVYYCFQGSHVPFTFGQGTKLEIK"
reported_property = "OD450 nm"
recorded_measurement = 2.52

[[record]]
binder = "hAb001H1aL1b (antibody, human IgG1, V domains shown, Humanized F2.169.2, H1a+L1b) VH: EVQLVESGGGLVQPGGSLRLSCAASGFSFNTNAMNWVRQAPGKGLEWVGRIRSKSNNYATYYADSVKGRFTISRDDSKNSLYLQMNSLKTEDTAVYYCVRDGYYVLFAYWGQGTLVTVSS VL: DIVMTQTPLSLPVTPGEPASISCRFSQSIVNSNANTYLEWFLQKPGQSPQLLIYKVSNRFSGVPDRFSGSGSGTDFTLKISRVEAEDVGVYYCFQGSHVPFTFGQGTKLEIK"
reported_property = "OD450 nm"
recorded_measurement = 2.68


We now examine a further binder.
Report OD450 nm for hAb001H1aL1a (antibody, human IgG1, V domains shown, Humanized F2.169.2, H1a+L1a) VH: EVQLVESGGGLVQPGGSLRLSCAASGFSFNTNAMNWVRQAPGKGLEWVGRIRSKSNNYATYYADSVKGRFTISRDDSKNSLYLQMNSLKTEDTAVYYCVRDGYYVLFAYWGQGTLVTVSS VL: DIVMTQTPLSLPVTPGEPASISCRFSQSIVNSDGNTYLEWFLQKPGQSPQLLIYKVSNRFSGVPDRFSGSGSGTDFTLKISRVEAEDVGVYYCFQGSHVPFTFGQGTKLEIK please.
2.49
